pKi for UniProt:P04150 - collated from the literature.
# SUBJECT OF TEST: UniProt:P04150
# Sequence (P04150 whole entry): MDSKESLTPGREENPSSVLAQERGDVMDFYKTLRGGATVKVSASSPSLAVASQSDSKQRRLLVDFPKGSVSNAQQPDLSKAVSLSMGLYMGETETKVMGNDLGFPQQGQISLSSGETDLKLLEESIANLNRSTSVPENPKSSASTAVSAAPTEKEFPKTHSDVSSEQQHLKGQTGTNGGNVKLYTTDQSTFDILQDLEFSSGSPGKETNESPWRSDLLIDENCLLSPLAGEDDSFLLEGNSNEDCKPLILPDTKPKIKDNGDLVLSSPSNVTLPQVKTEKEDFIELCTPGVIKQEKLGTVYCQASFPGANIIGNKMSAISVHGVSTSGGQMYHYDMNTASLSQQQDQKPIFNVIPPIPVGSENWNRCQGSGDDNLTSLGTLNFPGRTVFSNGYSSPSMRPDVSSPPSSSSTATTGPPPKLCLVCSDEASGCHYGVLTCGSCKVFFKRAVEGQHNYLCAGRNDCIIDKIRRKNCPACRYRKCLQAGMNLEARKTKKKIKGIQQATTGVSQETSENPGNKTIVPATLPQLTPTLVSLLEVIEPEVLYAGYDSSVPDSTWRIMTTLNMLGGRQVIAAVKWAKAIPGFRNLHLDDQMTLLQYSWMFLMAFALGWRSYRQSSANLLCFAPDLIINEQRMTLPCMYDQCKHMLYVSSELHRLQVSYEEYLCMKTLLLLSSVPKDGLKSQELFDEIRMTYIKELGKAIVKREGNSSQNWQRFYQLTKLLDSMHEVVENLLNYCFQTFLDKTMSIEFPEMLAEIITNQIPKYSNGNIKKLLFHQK
pKi: −log10 of the molar value.

# COMPOUND, SUBJECT OF TEST, VALUE COMPARATOR, pKi
records = [
    ("COc1cccc2c1-c1ccc3c(c1C(CC(C)C)O2)C(C)=CC(C)(C)N3 (centres undefined)", "UniProt:P04150", "=", 8.02),
    ("Nc1cccc(C=C2c3ccccc3CCc3ccccc32)c1", "UniProt:P04150", "<", 7.00),
    ("COc1ccc(Cl)cc1-c1c[nH]c2c(NS(C)(=O)=O)cccc12", "UniProt:P04150", "=", 8.26),
    ("C[C@]12C=CC(=O)C=C1[C@@H](F)C[C@H]1[C@@H]3C[C@H]4CN(c5ccccc5)C[C@@]4(C(=O)CO)[C@@]3(C)C[C@H](O)[C@@]12F", "UniProt:P04150", "=", 9.41),
    ("COc1c(O)ccc2c1-c1ccc3c(c1/C(=C/c1cccc(C(F)(F)F)c1)O2)C(C)=CC(C)(C)N3", "UniProt:P04150", "=", 8.57),
    ("C=C1CCC(Br)C(C)(C)[C@H]1Cc1cc(OC)c(Br)cc1O (some centres undefined)", "UniProt:P04150", "=", 5.61),
    ("CC(C)Oc1ccc(-c2ccc3c(n2)Oc2ccccc2[C@H]3C(C)(C)C(=O)Nc2nncs2)cc1", "UniProt:P04150", "=", 8.80),
    ("CNC(=O)C[C@H]1COc2cc(C#N)ccc2N1C(=O)c1ccc2c(c1)NC(=O)CO2", "UniProt:P04150", "<", 4.90),
    ("CC(C)(C(=O)Nc1nccs1)[C@H](c1ccccc1)c1ccc(O)c(F)c1", "UniProt:P04150", "=", 8.34),
    ("C=Cc1c(-c2cccc3cc[nH]c23)cc2c(c1C)NC(C)(C)[C@H](O)[C@H]2C (racemic)", "UniProt:P04150", "=", 8.51),
    ("CS(=O)(=O)Nc1cccc2c(-c3ccc(F)cc3)c[nH]c12", "UniProt:P04150", "=", 7.02),
    ("C[C@H]1c2c(cc(F)c(-c3cccc4c(Cl)c[nH]c34)c2F)NC(C)(C)[C@@H]1OC(=O)Nc1ccc(C#N)cc1", "UniProt:P04150", "=", 7.86),
    ("C[C@]12Cc3cnn(-c4ccc(F)cc4)c3C=C1CC[C@@]2(O)CCc1cccc(F)c1C(N)=O", "UniProt:P04150", ">", 9.00),
    ("C[C@H]1c2c(F)c(-c3cccc4cc[nH]c34)c(F)c(Cl)c2NC(C)(C)[C@@H]1O (racemic)", "UniProt:P04150", "=", 9.00),
    ("CC(C)(C(=O)Nc1nncs1)[C@H](c1ccccc1)c1ccc2c(cnn2-c2cccnc2)c1", "UniProt:P04150", "=", 8.40),
    ("Cc1ccsc1[C@@](C)(O)[C@H]1CCCC2=Cc3c(-c4ccc(F)cc4)ncn3C[C@@]21C", "UniProt:P04150", "=", 8.70),
    ("CCCC[C@@](C)(O)[C@H]1CCCC2=Cc3c(-c4ccc(F)cc4)ncn3C[C@@]21C", "UniProt:P04150", "=", 8.10),
    ("COc1c(O)ccc2c1-c1ccc3c(c1/C(=C/c1cccc(O)c1)O2)C(C)=CC(C)(C)N3", "UniProt:P04150", "=", 8.85),
    ("CC(C)(C(=O)Nc1nccs1)[C@H](c1ccccc1)c1ccc2c(cnn2-c2ccc(F)cc2)c1", "UniProt:P04150", "=", 8.10),
    ("COC(=O)c1ccc(NC(=O)O[C@@H]2[C@@H](C)c3c(cc(F)c(-c4cccc5cc[nH]c45)c3F)NC2(C)C)cc1", "UniProt:P04150", "=", 7.52),
    ("CN(C)C(=O)c1ccc(-c2ccc3c(c2)Oc2ccccc2C3C(C)(C)C(=O)Nc2nncs2)cc1 (racemic)", "UniProt:P04150", "=", 8.07),
    ("CC(C)(CO)NC(=O)c1ccccc1CC[C@]1(O)CCC2=Cc3c(cnn3-c3ccc(F)cc3)C[C@@]21C", "UniProt:P04150", "=", 9.00),
    ("COc1c(O)ccc2c1-c1ccc3c(c1/C(=C/c1ccc(Cl)cc1)O2)C(C)=CC(C)(C)N3", "UniProt:P04150", "=", 8.77),
    ("C[C@H]1c2c(cc(F)c(-c3cccc4c(Cl)c[nH]c34)c2F)NC(C)(C)[C@@H]1OC(=O)Nc1ccccc1", "UniProt:P04150", "=", 8.12),
    ("C#Cc1cccc2c1-c1ccc3c(c1[C@H](CC=C)O2)C(C)=CC(C)(C)N3", "UniProt:P04150", "=", 8.16),
    ("CO/N=C/c1c(-c2cccc3cc[nH]c23)cc(C)c2c1[C@H](C)[C@@H](O)C(C)(C)N2 (racemic)", "UniProt:P04150", "=", 8.16),
    ("COc1c(O)ccc2c1-c1ccc3c(c1/C(=C/c1cccc(Oc4ccccc4)c1)O2)C(C)=CC(C)(C)N3", "UniProt:P04150", "=", 8.34),
    ("CC(=O)c1ccc(NC(=O)O[C@@H]2[C@@H](C)c3c(cc(F)c(-c4cccc5cc[nH]c45)c3F)NC2(C)C)cc1 (racemic)", "UniProt:P04150", "=", 8.54),
    ("Cc1cc(-c2cccc3cc[nH]c23)c(/C=N/OC(C)(C)C)c2c1NC(C)(C)[C@H](O)[C@H]2C (racemic)", "UniProt:P04150", "=", 8.22),
    ("CC(C)Cc1cc2c(cc1F)OC[C@H](CS(N)(=O)=O)N2C(=O)c1ccc2c(c1)NC(=O)CO2", "UniProt:P04150", "=", 8.80),
    ("CC1(NC(=O)c2c(F)cccc2CC[C@]2(O)CCC3=Cc4c(cnn4-c4ccc(F)cc4)C[C@@]32C)CC1", "UniProt:P04150", ">", 9.00),
    ("CNC(=O)c1ccc(CC[C@]2(O)CCC3=Cc4c(cnn4-c4ccc(F)cc4)C[C@@]32C)cc1", "UniProt:P04150", "=", 6.81),
    ("CC(C)C[C@@H](c1ccc2c(cnn2-c2ccc(F)cc2)c1)C(C)(C)CNC(=O)NC(C)(C)C", "UniProt:P04150", "=", 8.44),
    ("CC(C)C[C@@](C)(O)[C@H]1CCCC2=Cc3c(-c4ccc(F)cc4)ncn3C[C@@]21C", "UniProt:P04150", "=", 8.05),
]
